B1: Steroid hormone receptor ERR2, residues 100 to 176; numbered along this chain, O95718 (parent)
chain: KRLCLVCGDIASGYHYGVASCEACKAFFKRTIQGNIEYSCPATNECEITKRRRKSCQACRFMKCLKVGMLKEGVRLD

# Variants of: B1
# Procedure details: abundance fitness (aPCA) (normalised: wild type 0, dead -1); higher = more abundant; growth selection in yeast, the domain comes from the species named
# Run conditions: Homo sapiens

# Sequence chain, abundance fitness
rows = [
    ("KRLCLVCGDIASGYHYGVASCEACKAFFKRTIQGNIEYSCPATNETEITKRRRKSCQACRFMKCLKVGMLKEGVRLD [C46T]", -0.766),
    ("KRLCLVCGDIASGYHYGVASCEACKAFFKRTIQGNIWYSCPATNECEITKRRRKSCQACRFMKCLKVGMLKEGVRLD [E37W]", -0.543),
    ("KRLCLVCGDIASGYHYTVASCEACKAFFKRTIQGNIEYSCPATNECEITKRRRKSCQACRFMKCLKVGMLKEGVRLD [G17T]", -0.337),
    ("KRLCLVCGDIASGYHYGVASCEACKAFFKRTIQGNIEYSCPATNECEITKRRRKSNQACRFMKCLKVGMLKEGVRLD [C56N]", -0.845),
    ("KRLCLVCGDIASGYHYGVASCEACKAFFKRTIQGNIEYSCPATNECEITKRRRKSCQCCRFMKCLKVGMLKEGVRLD [A58C]", -0.346),
    ("KRLCLVCGDIASGYHYGVASCEACKAFFKRTIQGNIEVSCPATNECEITKRRRKSCQACRFMKCLKVGMLKEGVRLD [Y38V]", -0.541),
    ("KRLCLVIGDIASGYHYGVASCEACKAFFKRTIQGNIEYSCPATNECEITKRRRKSCQACRFMKCLKVGMLKEGVRLD [C7I]", -1.05),
    ("KRLCLVCGDIASGYHYGVASCEACKAFFKRTIQGNIEYSCPATNECEITKRRRKSCQACRFMKNLKVGMLKEGVRLD [C64N]", -0.483),
    ("KRLCLVCGDIASGYHYGVASCEACKAFFKRTIQGNIEYSCPATNECEITLRRRKSCQACRFMKCLKVGMLKEGVRLD [K50L]", -0.088),
    ("KRLCLVCGDIASGYHYGVASCEACKAFFKRTIQGNIEYSCPAQNECEITKRRRKSCQACRFMKCLKVGMLKEGVRLD [T43Q]", -0.175),
    ("KRLCLVCGDIASGYHYGVASCEACKAFFKRTIQGNIEYSCPATNECEPTKRRRKSCQACRFMKCLKVGMLKEGVRLD [I48P]", -0.242),
    ("KRLCLVCGDIASGYHYGVASCEACKAFFKRTIQGNIEYSCPATNECEITKRRRKSCQACRFMHCLKVGMLKEGVRLD [K63H]", -0.359),
    ("KRLCLVCGDIASGYHYGVASCEACKCFFKRTIQGNIEYSCPATNECEITKRRRKSCQACRFMKCLKVGMLKEGVRLD [A26C]", -0.046),
    ("KRLCLVCGDIASGYHYGVASCEACKAFFKRTIQGNPEYSCPATNECEITKRRRKSCQACRFMKCLKVGMLKEGVRLD [I36P]", -0.182),
    ("KRLCLVCGDIASGYHYGVASCEACKAFFKRTIQGNIEYSCPATNECEITKRRRKSCQARRFMKCLKVGMLKEGVRLD [C59R]", -0.755),
    ("KRLCLVCGDIASGYHYGVASCEACKAFFKRTIQGNIEYSCPATNECEITKRRRKSIQACRFMKCLKVGMLKEGVRLD [C56I]", -0.679),
    ("KRLCLVCGDIASGYHYGVASCEACKAFFKRTIQGNIEYSCPATNECEITDRRRKSCQACRFMKCLKVGMLKEGVRLD [K50D]", -0.055),
    ("KRLCFVCGDIASGYHYGVASCEACKAFFKRTIQGNIEYSCPATNECEITKRRRKSCQACRFMKCLKVGMLKEGVRLD [L5F]", -0.133),
    ("KRLCLVCGDIASGYHYGVASCEACKAFFARTIQGNIEYSCPATNECEITKRRRKSCQACRFMKCLKVGMLKEGVRLD [K29A]", 0.18),
    ("KRLCLVCGDIASGYHYGVASCEACKAFFKRTIQGNIEYSCPATNECEITKRRRKRCQACRFMKCLKVGMLKEGVRLD [S55R]", 0.22),
    ("KRLCLVCGDIASGYHYGVASCEACKAFFKRTIQGNIEYSCPATNEMEITKRRRKSCQACRFMKCLKVGMLKEGVRLD [C46M]", -0.557),
    ("KRLCLVCGDIASGYHYGVASCEACKAFFKRTIQGMIEYSCPATNECEITKRRRKSCQACRFMKCLKVGMLKEGVRLD [N35M]", -0.317),
    ("KRLCLVCGDIASGVHYGVASCEACKAFFKRTIQGNIEYSCPATNECEITKRRRKSCQACRFMKCLKVGMLKEGVRLD [Y14V]", 0.136),
    ("GRLCLVCGDIASGYHYGVASCEACKAFFKRTIQGNIEYSCPATNECEITKRRRKSCQACRFMKCLKVGMLKEGVRLD [K1G]", -0.386),
    ("KRLCLVCGDIASGYHYGVASCEACKAFFKRTIQGNIEYSCPATNECEITKRRRKSCQACRFMKILKVGMLKEGVRLD [C64I]", -0.478),
    ("KRLCLVCGDIASGYHYGVASCEACKAFFKRTIQGNIEYSCPATNECEITKRRRKSCQACRFMKALKVGMLKEGVRLD [C64A]", -0.301),
    ("KRLCLVCGDIASGYHYGVASCEACKAFFKRTILGNIEYSCPATNECEITKRRRKSCQACRFMKCLKVGMLKEGVRLD [Q33L]", -0.146),
    ("KRLCLQCGDIASGYHYGVASCEACKAFFKRTIQGNIEYSCPATNECEITKRRRKSCQACRFMKCLKVGMLKEGVRLD [V6Q]", -0.781),
    ("KRLCLVCGDIASGYHYGVASCEACKAFFKRTIQGNIFYSCPATNECEITKRRRKSCQACRFMKCLKVGMLKEGVRLD [E37F]", -0.851),
    ("KRLCLVCGDIASGYHYGVASCEACKAFFKRTIQGNIEYSCPATNECEITKRRRKSDQACRFMKCLKVGMLKEGVRLD [C56D]", -1.17),
    ("KRLCLVCGDIASGYHYGVASCEACKASFKRTIQGNIEYSCPATNECEITKRRRKSCQACRFMKCLKVGMLKEGVRLD [F27S]", -0.746),
    ("KRLCLVCGDIASGYHYGCASCEACKAFFKRTIQGNIEYSCPATNECEITKRRRKSCQACRFMKCLKVGMLKEGVRLD [V18C]", -0.169),
    ("KRLCLVCGDIASGYHYGVASCEACKAFFKRTIQGNIEYSCPATNECEITKRRKKSCQACRFMKCLKVGMLKEGVRLD [R53K]", 0.015),
    ("KRLCLVCGDIASGYHYGVASCEAPKAFFKRTIQGNIEYSCPATNECEITKRRRKSCQACRFMKCLKVGMLKEGVRLD [C24P]", -1.13),
    ("KRLCLVCGDIASGYHYGVASCEACKAFFKRTIQGNIEYSCPATNECEITKRRRKSCQATRFMKCLKVGMLKEGVRLD [C59T]", -0.872),
    ("KRLCLVCGDIASGYHYGVASCEACKAFFKRTIQGNIEYSCPCTNECEITKRRRKSCQACRFMKCLKVGMLKEGVRLD [A42C]", -0.501),
    ("KRLCLVCGDIASGYHYGVASCEACKAFFKRTIQGNIEYSCPATNECEITKRRRKSCQACMFMKCLKVGMLKEGVRLD [R60M]", 0.108),
    ("KRLCLVCGDIASGYHYGVASCEACKAFFKRTIQGNIEYSCPATNFCEITKRRRKSCQACRFMKCLKVGMLKEGVRLD [E45F]", -0.329),
    ("KRLCLVCGDIASGYHYGVASCEACKAFFKRTIQGNIEYSCPATNECEITKRRRKSCQACRFHKCLKVGMLKEGVRLD [M62H]", -0.496),
    ("KRLCLVCGDIASGYHYGVASKEACKAFFKRTIQGNIEYSCPATNECEITKRRRKSCQACRFMKCLKVGMLKEGVRLD [C21K]", -0.679),
    ("KRLCLVCGDIASGYHYGVASCEACKAFFKRTIQGNIEYSCPATNECEITKRQRKSCQACRFMKCLKVGMLKEGVRLD [R52Q]", 0.128),
    ("KRLCLVCGDIASGYHYGVASCEACKAFFKRTIQGNIEYSCPATNECMITKRRRKSCQACRFMKCLKVGMLKEGVRLD [E47M]", -0.592),
    ("KRLCLVCGDIASGYHYGVASCEACKAFFKRTIQGNIEYSCPATNECEITKRRRKKCQACRFMKCLKVGMLKEGVRLD [S55K]", 0.149),
    ("KRLCLVCGDIASGYHYGVASCEACKAFFKRTIQGNIEYSCPATNECFITKRRRKSCQACRFMKCLKVGMLKEGVRLD [E47F]", -0.354),
    ("KRLCLVCGDIASGYHYGVASCEACKAFFKRTPQGNIEYSCPATNECEITKRRRKSCQACRFMKCLKVGMLKEGVRLD [I32P]", -0.589),
    ("KRLCLVCGDIASGYHYGVASCEACKAFFKRTIKGNIEYSCPATNECEITKRRRKSCQACRFMKCLKVGMLKEGVRLD [Q33K]", -0.212),
]
